Source listed as PubChem BioAssay.

# System: wheat germ agglutinin (Triticum aestivum), Alexa647-labelled
# assay.remarks: wheat germ agglutinin binders on compound microarrays, profiling panel, artefact control for SMM control-protein annotation, biochemical, small-molecule microarray, 635/667 nm fluorescence (AID 1140);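 also: score merges 667 nm feature emission with signal to noise over triplicate slides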
# cond: WGA-A647 binding, 635 nm fluorescence, higher = more signal
measurement.name: composite z-score
Give bare numbers.

Sample records with composite z-score:
O=C(O)[C@@H]1Cc2c([nH]c3ccccc23)[C@@H](c2ccccc2)N1	0.0252
CN1C2C=C(c3ccc(CO)cc3)C(C3C(=O)N(C(N)=O)C(=O)C32)C1c1cccs1 (stereo not drawn)	-0.543
CO[C@H]1COC(=O)[C@@H](C)COC(=O)[C@H](Cc2ccccc2)NC(=O)CC=C[C@H]1C	-0.457
COCCCNC(=O)[C@@]1(Sc2ccc(C)cc2)CC(=O)N(Cc2cc(C(F)(F)F)cc(C(F)(F)F)c2)[C@@H]1c1ccc(CO)cc1I	-1.1
O=C1OCC=C[C@H]2OC34C=CCN(Cc5ccccc5)C(=O)[C@H]3N(CCCCCO)C(=O)[C@@H]4[C@@H]12 (stereo partly drawn)	-1.29
O=C1OCC=C[C@H]2OC34C=CCN(Cc5ccccc5)C(=O)[C@H]3N(CCO)C(=O)[C@@H]4[C@@H]12 (stereo partly drawn)	-0.0943
CO[C@H]1O[C@H](CO)[C@@H](OC(=O)Nc2ccc(Oc3ccccc3)cc2)[C@H](OC(=O)Nc2ccccc2-c2ccccc2)[C@H]1OC(=O)Nc1ccccc1-c1ccccc1	1.38

Next item in the queue.
What does the record list as composite z-score for "CC(C)CNC(=O)[C@@]1(C)c2ccccc2C(=O)N(Cc2ccc(OC(F)(F)F)cc2)[C@H]1c1ccc(CO)cc1" ?
-0.0416

----------
# assay.remarks: modulators of S6 phosphorylation in cells, primary screen, cell-based, A549, cytoblot, luminescence, serum-stimulated (AID 1158);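 also: serum-stimulated A549 lung adenocarcinoma cells; signal is phosphorylated S6 detected by cytoblot immunostaining with HRP secondary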
# cond: A549 phospho-S6 cytoblot, 5 h, higher = more signal
measurement.name: z-score

Sample records with z-score:
CC[C@H]1C2=C3C(CC[C@H]4C(OC)OC[C@](C)([C@@H]34)N(C(=O)OC(C)(C)C)C2)C(CO)C1CO (stereo partly drawn)	1.59
C=C(C)[C@@H]1CC=C(C(O)C2C=CC3C(=O)NC(=O)C3N2Nc2ccccn2)CC1 (stereo partly drawn)	-1.11
COC(=O)[C@@]1(Cc2ccc(OC)cc2)[C@H]2c3cc(C(=O)N(C)C)n(CCc4ccc(OC)c(Br)c4)c3C[C@H]2CN1C(=O)c1ccccc1	-0.21
COC(=O)c1c(CC[C@@H](CO)NC(=O)N[C@H](Cn2cc(-c3cncn3C)nn2)C(C)C)oc(C(C)=O)c1C(=O)OC	2.93

Consider the following items and state reported z-score for each.
1. O=C1C2C=CC(C(O)Cc3ccccc3)N(Nc3ccc([N+](=O)[O-])cc3)C2C(=O)N1c1ccccc1 (stereo not drawn)
2. CCOC(=O)C[C@H]1[C@H](OC(=O)Cc2ccc3c(c2)OCO3)[C@@H](NC(=O)c2ccc3ccccc3c2)c2cc(OCCCO)ccc2N1C(=O)Cc1ccc(OC)cc1

1. -0.521
2. 2.6

Consider the following items and state reported z-score for each.
1. C=CC[C@]1(C(=O)N2CCCCC2)N=C(c2ccc(OCCCO)cc2)O[C@H]1c1ccccc1N=[N+]=[N-]
2. Cc1ccc(S(=O)(=O)N[C@H]2COC(=O)CC=C[C@H](C)COC(=O)N[C@@H](C)C(=O)CC=C[C@@H]2C)cc1
3. C=CCOC(=O)[C@@H]1[C@H]2C(=O)O[C@H](c3ccccc3)[C@H](c3ccccc3)N2[C@H](c2ccc(OCCOC(=O)[C@H]3C[C@H]4C(=O)N[C@@H](CCCCNC(C)=O)C(=O)N4[C@H]3c3ccc(O)cc3)cc2)[C@@]12C(=O)Nc1ccc(I)cc12
4. COc1ccc(C(=O)Nc2ccc(CN3C(=O)[C@]4(O[C@H](CCn5cc(CCO)nn5)[C@@H]([Si](C)(C)c5ccc(OC)cc5)[C@@H]4C)c4ccccc43)cc2)cc1
5. CC(=O)NCCCC[C@@H]1NC(=O)[C@H]2C[C@@H](C(=O)NCCCCCCN(C)C)[C@@H](c3ccc(O)cc3)N2C1=O
6. CC(C)[Si]1(C(C)C)O[C@@H](c2ccccc2)c2cc(C3CC3)nc(-c3ccc(Oc4ccccc4)cc3)c21
7. O=C1c2ccccc2[C@@]2(Cc3ccccc3N(CC(F)(F)F)C2=O)[C@H](c2ccc(CO)cc2)N1C1CCCCC1

1: 0.0944; 2: 1.87; 3: 1.3; 4: -0.196; 5: 0.144; 6: -0.164; 7: 0.0443

Consider the following items and state reported z-score for each.
1. CN1CCC(CCCO)=CC1C1CC1 (stereo not drawn)
2. CO[C@H]1COC(=O)[C@H](CCSC)NC(=O)CC=C[C@@H](C)COC(=O)[C@@H](OCc2ccccc2)C=C[C@@H]1C
3. O=C(CS)NCCCCCNC(=O)[C@H]1C[C@H]2C(=O)N[C@@H](Cc3ccccc3)C(=O)N2[C@H]1c1ccc(O)cc1
4. COCCOC(=O)N1C(=O)[C@@]2(c3cc(C#CC4=CCCCC4)ccc31)[C@H](C(=O)NC[C@H](O)c1ccccc1)[C@H]1C(=O)O[C@H](c3ccccc3)[C@H](c3ccccc3)N1[C@@H]2c1ccc(OCCO)cc1
5. [N-]=[N+]=NCc1ccccc1C[C@]1(C(=O)N2CCCCC2)N=C(c2ccc(OCCCO)cc2)O[C@H]1c1ccccc1CN=[N+]=[N-]
6. C=C(C(=O)CC[C@H](OC(=O)c1ccccc1-c1ccccc1C(=O)O)c1ccc(CO)o1)C(C)C
7. CC(C)[Si](OCCCNS(=O)(=O)c1ccc(Br)cc1)(C(C)C)C(C)C

[0.591, 0.182, 0.263, 0.0766, -0.574, 0.124, 4.17]
